I'd be grateful if you could share measured inhibition for these entries.
SYSTEM: cGMP-dependent protein kinase 2 (Homo sapiens);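 note: reported figure is a mean inhibition value against PRKG2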
CONDITION: at 0.1 µM
Numbers only, in %.

>>> value("NS(=O)(=O)c1ccc(NC=C2C(=O)Nc3ccc4ncsc4c32)cc1")
18.4
>>> value("NC(=O)c1sc(-n2cnc3ccccc32)cc1OCc1ccccc1Br")
3.61
>>> value("CCS(=O)(=O)c1ccc(OC)c(Nc2ncc(-c3cccc(OC)c3)o2)c1")
0.25
>>> value("CC(C)c1ccc(Nc2nccc(-c3cnn4ncccc34)n2)cc1")
1.01
>>> value("Cc1ccc(C(=O)NC2CC2)cc1-c1ccc2[nH]ncc2c1")
-1.53

Provide inhibition for all items below, preserving their order.
1. NS(=O)(=O)c1ccc(-c2cc3ccncc3cc2OCc2ccccc2)cc1
2. O=C1Nc2ccccc2/C1=C/Nc1ccc2[nH]c(=O)[nH]c2c1
3. C[C@@H](Oc1cc(-n2cnc3ccc(OC[C@@H](O)CO)cc32)sc1C(N)=O)c1ccccc1Cl
4. Cc1ccc2c(c1)/C(=N/Nc1ccc(S(N)(=O)=O)cc1)C(=O)N2

Resp:
1: 1.8; 2: 3.41; 3: -0.02; 4: 0.36

* * *

SYSTEM: Mitogen-activated protein kinase 3 (Homo sapiens) (UniProt P27361);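 note: values are mean percent inhibition of MAPK3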
Sequence (P27361 whole entry): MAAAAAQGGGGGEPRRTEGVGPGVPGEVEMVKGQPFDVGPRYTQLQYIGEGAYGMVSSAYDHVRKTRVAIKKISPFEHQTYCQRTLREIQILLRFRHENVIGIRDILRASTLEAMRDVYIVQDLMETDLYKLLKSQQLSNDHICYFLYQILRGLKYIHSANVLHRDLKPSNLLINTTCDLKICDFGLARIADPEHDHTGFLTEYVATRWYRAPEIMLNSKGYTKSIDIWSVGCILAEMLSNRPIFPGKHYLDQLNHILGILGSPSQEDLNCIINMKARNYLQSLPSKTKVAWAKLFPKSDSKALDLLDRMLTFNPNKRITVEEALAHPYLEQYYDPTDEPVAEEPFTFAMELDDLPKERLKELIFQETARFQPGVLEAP
CONDITION: at 1 µM
I'd be grateful if you could share measured inhibition for these entries.
Give bare numbers, in %.

>>> value("NS(=O)(=O)c1cccc(-c2cc3ccncc3cc2OCc2ccccc2)c1")
4.26
>>> value("Cc1ccc(C(=O)NC2CC2)cc1-c1ccc2[nH]ncc2c1")
-2.12
>>> value("[O-][S+]1CCN(Cc2ccc(-c3ccc4ncnc(Nc5ccc(OCc6ccccc6)c(Cl)c5)c4c3)o2)CC1")
2.24
>>> value("NS(=O)(=O)c1ccc(-c2cc3ccncc3cc2OCc2ccccc2)cc1")
3.1
>>> value("CS(=O)(=O)CCNCc1nc(-c2ccc3ncnc(Nc4ccc(OCc5cccc(C(F)(F)F)c5)cc4)c3c2)cs1")
1.69

Provide inhibition for all items below, preserving their order.
1. Nc1nccc(-c2c(-c3ccc(F)cc3)ncn2CCCN2CCOCC2)n1
2. Cc1ccc2c(c1)/C(=N/Nc1ccc(S(N)(=O)=O)cc1)C(=O)N2

Resp:
[5.63, 1.36]

* * *

SYSTEM: Ephrin type-A receptor 4 (Homo sapiens);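 note: mean inhibition of EPHA4 from the GSK PKIS screening set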
CONDITION: at 0.1 µM
MEASURED_METRIC: inhibition (%)
One number for each entry, in %.

Solved cases (4 shown):
>>> value("CN(c1ccc(NC(=O)Nc2ccc(OC(F)(F)F)cc2)cc1)c1ccnc(Nc2cccc(S(N)(=O)=O)c2)n1")
9.59
>>> value("O=C(Nc1ccc(Oc2ccc3[nH]c(NC(=O)c4ccco4)nc3c2)cc1)Nc1cc(C(F)(F)F)ccc1F")
36.3
>>> value("Cc1nc(-c2ccccc2)n2nc(NCCCN3CCOCC3)ncc12")
5.25
>>> value("N#Cc1cccc(Nc2nccc(-c3cnn4ncccc34)n2)c1")
13

Provide inhibition for all items below, preserving their order.
1. CCn1c(-c2nonc2N)nc2c(C#CC(C)(C)O)nc(OCCNC)cc21
2. ON=C1CCc2cc(-c3nc(C4CCNCC4)[nH]c3-c3ccncc3)ccc21
3. [O-][S+]1CCN(Cc2ccc(-c3ccc4ncnc(Nc5ccc(OCc6ccccc6)c(Cl)c5)c4c3)o2)CC1

Resp:
1: 4; 2: -1.9; 3: 2.8
